Tested on: CIT
Experimental Setup: concentration: 1 μM, replicates: in singlicate; n = 1;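 also: KINOMEscan kinase panel screen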
Below: a set of entries, each annotated with reported %Inh.
// units = %; emit number, no label

Data request: Assign %Inh to the following record: NS(=O)(=O)c1cccc(-c2ccc3ncc(N4CCOCC4)nc3c2)c1 [GSK1535721]
Data returned: 7

Data request: Assign %Inh to the following record: O=C(NOCC1CC1)c1ccc(F)c(F)c1Nc1ccc(I)cc1Cl
Data returned: 0

Data request: Assign %Inh to the following record: O=c1cc(N2CCOCC2)nc2n(Cc3cccc(F)c3)ccn12 [GSK2297430]
Data returned: 26

Data request: Assign %Inh to the following record: Cl.Oc1cccc(Nc2ccnc3cc(-c4ccncc4)ccc23)c1 [GW494601]
Data returned: 68

Data request: Assign %Inh to the following record: Cc1c(Cn2c(C)nn3c(=O)cc(N4CCOC(C)C4)nc23)cccc1C(F)(F)F (stereo not shown) [GSK2344444]
Data returned: 9

Data request: Assign %Inh to the following record: C[C@@H](Oc1cc(-n2cnc3ccc(NC(=O)NC(C)(C)C)cc32)sc1C(N)=O)c1ccccc1Cl [GSK346294]
Data returned: 0

---

Below: a set of entries, each annotated with reported %Inh.
Tested on: CDK8
Experimental Setup: concentration: 1 μM, replicates: in singlicate; n = 1
// units = %; emit number, no label

[
  {
    "Compound": "Fc1ccc(-c2ncn(CCCN3CCOCC3)c2-c2ccccn2)cc1 [SB-211742]",
    "%Inh / %": 29
  },
  {
    "Compound": "COc1ccc(Nc2nccc(N3CCC(NC(=O)Nc4cccc(C(C)=O)c4)C3)n2)cc1 (stereo not drawn) [GSK1379731]",
    "%Inh / %": 61
  },
  {
    "Compound": "NCC(NC(=O)c1cc(-c2cn[nH]c2)c(-c2ccnc3[nH]ccc23)s1)c1ccccc1.O=C(O)C(F)(F)F.O=C(O)C(F)(F)F (stereo not drawn) [GSK1325775]",
    "%Inh / %": 33
  },
  {
    "Compound": "Cc1ccc(C(=O)NCC(N)=O)cc1-n1c(C)cc(OCc2ccc(F)cc2F)c(Br)c1=O",
    "%Inh / %": 8
  },
  {
    "Compound": "Cl.Nc1ncnc2occ(-c3ccc(NC(=O)Nc4cc(C(F)(F)F)ccc4F)cc3)c12 [SB-707548]",
    "%Inh / %": 100
  }
]

Data request: Assign %Inh to the following record: O=c1cc(N2CCOCC2)nc2n(Cc3cccc4ccccc34)ccn12 [GSK2333389]
Data returned: 13

Data request: Assign %Inh to the following record: CCn1cnc2c(N)ncnc21 [GW345098]
Data returned: 7

Data request: Assign %Inh to the following record: c1ccc(-c2cc(-c3c[nH]nc3-c3ccccn3)ccn2)cc1 [GW576604]
Data returned: 13

Data request: Assign %Inh to the following record: COCCNC(=O)c1ccc(-c2cc(C(=O)NC3CC3)cc(F)c2C)cc1 [GW868318]
Data returned: 0

Data request: Assign %Inh to the following record: COc1cc2c(cc1OC[C@@H](O)CO)ncc1c3ccc(C#N)cc3[nH]c21
Data returned: 15

Data request: Assign %Inh to the following record: Cc1nnc(-c2ccc(C)c(-c3ccc(C(=O)Nc4ccc(NS(C)(=O)=O)cc4)cc3)c2)o1 [GW702865]
Data returned: 28

Data request: Assign %Inh to the following record: COc1ccc(COc2cc(-n3cnc4ccccc43)sc2C(N)=O)cc1 [GSK1024304]
Data returned: 29

Data request: Assign %Inh to the following record: Fc1ccc(-c2ncn(CCCN3CCOCC3)c2-c2cccnc2)cc1 [SB-211743]
Data returned: 0

Data request: Assign %Inh to the following record: CC(C)Oc1ccc2c(-c3ccnc(Nc4ccc(N5CCN(C)CC5)cc4)n3)cnn2n1 [GW696155]
Data returned: 8

Data request: Assign %Inh to the following record: O=C(NCCCN1CCOCC1)c1cccc(Nc2nccc(Nc3ccc(Oc4ccccc4)cc3)n2)c1 [GW663929]
Data returned: 34

---

Test system: PAK1
Experimental Setup: concentration: 1 μM, replicates: in singlicate; n = 1
Below: a set of entries, each annotated with reported %Inh.
// units = %; emit number, no label

A selection of reference data follows.
[
  {
    "Molecule": "O=c1cc(N2CCOCC2)nc2n(Cc3cccc(C(F)(F)F)c3)ccn12",
    "Test System": "PAK1",
    "%Inh (%)": 6
  },
  {
    "Molecule": "NCC(NC(=O)c1cc(-c2cn[nH]c2)c(-c2ccnc3[nH]ccc23)s1)c1ccccc1.O=C(O)C(F)(F)F.O=C(O)C(F)(F)F (stereo not shown)",
    "Test System": "PAK1",
    "%Inh (%)": 19
  },
  {
    "Molecule": "CN(C1=C(c2ccccc2)C(=O)NC1=O)c1ccccc1",
    "Test System": "PAK1",
    "%Inh (%)": 0
  }
]

Now look at this one.
Data request: Assign %Inh to the following record: Cl.Nc1ncnc2occ(-c3ccc(NC(=O)Nc4cc(C(F)(F)F)ccc4F)cc3)c12
Data returned: 24

---

System: DRAK2
Construct: gene STK17B
Experimental Setup: concentration: 1 μM, replicates: in singlicate; n = 1
Below: a set of entries, each annotated with reported %Inh.
// units = %; emit number, no label

A selection of reference data follows.
[
  {
    "Compound": "c1ccc(-c2cc(-c3c[nH]nc3-c3ccccn3)ccn2)cc1",
    "%Inh (%)": 0
  },
  {
    "Compound": "Cn1cc(-c2ccc3c(c2)CCN3C(=O)Cc2ccccc2Cl)c2c(N)ncnc21",
    "%Inh (%)": 0
  },
  {
    "Compound": "[2H]C([2H])(c1cccc(C(F)(F)F)c1C)n1ccn2c(=O)nc(N3CCOCC3)cc12",
    "%Inh (%)": 0
  },
  {
    "Compound": "c1ccc(-c2n[nH]cc2-c2ccnc3ccccc23)nc1",
    "%Inh (%)": 18
  },
  {
    "Compound": "Cc1ccc(C(=O)NCC(N)=O)cc1-n1c(C)cc(OCc2ccc(F)cc2F)c(Br)c1=O",
    "%Inh (%)": 5
  },
  {
    "Compound": "Cl.Nc1ncnc2occ(-c3ccc(NC(=O)Nc4cc(C(F)(F)F)ccc4F)cc3)c12",
    "%Inh (%)": 0
  },
  {
    "Compound": "CN(C(=O)c1ccc(-c2cc(-c3c[nH]nc3-c3ccccn3)ccn2)cc1)C1CCOCC1",
    "%Inh (%)": 2
  },
  {
    "Compound": "O=c1cc(N2CCOCC2)nc2n(Cc3cccc(F)c3)ccn12",
    "%Inh (%)": 0
  },
  {
    "Compound": "NCC(NC(=O)c1cc(-c2cn[nH]c2)c(-c2ccnc3[nH]ccc23)s1)c1ccccc1.O=C(O)C(F)(F)F.O=C(O)C(F)(F)F (stereo not shown)",
    "%Inh (%)": 0
  },
  {
    "Compound": "CCn1cnc2c(N)ncnc21",
    "%Inh (%)": 9
  }
]

Data request: Assign %Inh to the following record: COc1ccc(S(=O)(=O)NC2CCN(c3cc(C)nc(Nc4cccc(C#N)c4)n3)CC2)cc1.O=C(O)C(F)(F)F
Data returned: 0

Data request: Assign %Inh to the following record: C[C@@H](Oc1cc(-n2cnc3ccc(NC(=O)NC(C)(C)C)cc32)sc1C(N)=O)c1ccccc1Cl
Data returned: 0

Data request: Assign %Inh to the following record: Cc1c2ccc(N(C)c3ccnc(Nc4cccc(S(N)(=O)=O)c4)n3)cc2nn1Cc1ccccc1.Cl.Cl
Data returned: 16

Data request: Assign %Inh to the following record: NS(=O)(=O)CCc1cccc(Nc2nccc(-c3c(-c4cccc(NC(=O)c5c(F)cccc5F)c4)nn4ccccc34)n2)c1
Data returned: 12

Data request: Assign %Inh to the following record: CC(=O)Nc1ccc(COc2ccc(Nc3ccnc4cc(-c5ccccn5)ccc34)cc2)cc1.Cl
Data returned: 21

---

Tested on: PDPK1
Experimental Setup: concentration: 1 μM, replicates: in singlicate; n = 1
Below: a set of entries, each annotated with reported %Inh.
// units = %; emit number, no label

[
  {
    "Compound Smiles": "O=C(Nc1n[nH]c2cc(-c3cccc(F)c3)ccc12)C1CC1",
    "Test System": "PDPK1",
    "Unit Spec": "%",
    "%Inh": 0
  },
  {
    "Compound Smiles": "CC(C)(CN)c1nc(-c2ccc(Cl)c(O)c2)c(-c2ccncc2)[nH]1.O=C(O)C(F)(F)F",
    "Test System": "PDPK1",
    "Unit Spec": "%",
    "%Inh": 0
  },
  {
    "Compound Smiles": "Fc1ccc(-c2ncn(CCCN3CCOCC3)c2-c2cccnc2)cc1",
    "Test System": "PDPK1",
    "Unit Spec": "%",
    "%Inh": 1
  }
]

Data request: Assign %Inh to the following record: COc1cc2ncn(-c3cc(OCc4sccc4Cl)c(C(N)=O)s3)c2cc1OC
Data returned: 0

Data request: Assign %Inh to the following record: Cc1nnc(-c2ccc(C)c(-c3ccc(C(=O)Nc4ccc(NS(C)(=O)=O)cc4)cc3)c2)o1
Data returned: 0
